Origin of values: ChEMBL document CHEMBL1201862

Experiment: Luminescence Cell-Based Dose Retest to Confirm Inhibitors of Cancer Stem Cells. [Related pubchem assays (depositor defined):AID2717, AID2721]
Format: functional
Details: Homo sapiens
Active and inactive are the calls of the source.

compound	AC50
CCCCCCC(C)(C)c1ccc([C@@H]2C[C@H](O)CC[C@H]2CCCO)c(O)c1 [CP-55940]	3.58 µM (active)
COc1ccc(C[C@H]2CN3C(=NC[C@@H]3Cc3ccccc3)N2CCNC(=O)CCC2CCCCC2)cc1	11.2 µM (active)
COc1cc(/C=c2\sc3n(c2=O)C(c2ccccc2)C(c2ccccc2)=NN=3)ccc1O (stereo not drawn)	4.58 µM (active)
Cc1ccc(-c2cc(-c3ccccc3C)[nH]n2)c(O)c1	7.98 µM (active)
CC1=[N+](C)c2ccc3ccccc3c2C1(C)C	27.4 µM (active)
O=C1[C@@H]2Cc3c([nH]c4ccccc34)C(c3cccc(Br)c3)N2C(=O)CN1C1CCN(Cc2ccccc2)CC1 (stereo partly drawn)	6.9 µM (active)
Cc1cc(-c2ccccc2)n(-c2cc(N/N=C/c3ccccc3O)ncn2)n1	0.703 µM (active)
Cc1cc(C(=O)NNc2ccc(F)cc2F)no1	1.1 µM (active)

====

Target: Large T antigen (Simian virus 40, UniProt P03070);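 note: Confirmatory-stage PubChem screen for compounds that inhibit SV40 T antigen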
Sequence (P03070 whole entry): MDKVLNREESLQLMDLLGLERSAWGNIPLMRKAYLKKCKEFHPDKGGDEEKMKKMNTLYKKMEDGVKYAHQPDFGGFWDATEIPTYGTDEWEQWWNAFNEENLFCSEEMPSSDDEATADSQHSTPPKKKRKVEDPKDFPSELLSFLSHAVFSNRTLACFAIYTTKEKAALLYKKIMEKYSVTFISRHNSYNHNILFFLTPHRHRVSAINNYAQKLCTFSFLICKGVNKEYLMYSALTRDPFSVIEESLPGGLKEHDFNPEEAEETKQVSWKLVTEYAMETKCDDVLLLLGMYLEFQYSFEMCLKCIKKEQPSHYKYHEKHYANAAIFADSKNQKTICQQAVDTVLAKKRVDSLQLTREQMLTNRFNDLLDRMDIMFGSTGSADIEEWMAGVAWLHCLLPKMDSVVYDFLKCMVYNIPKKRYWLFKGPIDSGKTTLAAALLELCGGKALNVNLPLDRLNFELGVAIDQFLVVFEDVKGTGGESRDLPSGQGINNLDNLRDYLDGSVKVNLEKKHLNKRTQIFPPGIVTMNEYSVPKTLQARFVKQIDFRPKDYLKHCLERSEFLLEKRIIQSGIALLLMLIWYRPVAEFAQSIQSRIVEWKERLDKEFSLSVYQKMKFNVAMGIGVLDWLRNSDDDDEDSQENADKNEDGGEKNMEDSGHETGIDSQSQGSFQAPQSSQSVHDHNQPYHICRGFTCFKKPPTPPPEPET
Assay type: functional, Betapolyomavirus macacae
Activity calls are given as the source filed them.
measured-endpoint: IC50

molecule	value-measured
COc1cc(/C=N/NC(=S)Nc2cccc(C(=O)O)c2)ccc1O	22.1 µM (active)
O=c1c2c(O)cc(CSc3ccc(Cl)cc3)nc2[nH]n1-c1ccccc1	> 100 µM (active)
CN1CCc2cccc3c2[C@H]1Cc1ccc(O)c(O)c1-3 [APOMORPHINE]	20.2 µM (active)
O=C1NN(c2ccccc2)C(=O)/C1=C/c1ccc(-c2ccc(C(=O)O)cc2)o1	20.6 µM (active)
CN(C)C(=O)c1c(-c2ccccc2)oc2ccc(O)cc12	46.6 µM (active)
COc1cc(/C=C(\C#N)c2nc3ccccc3n2C)cc(OC)c1O	9.81 µM (active)
Cc1ccc(C)c(-c2nc3ccc(N)cc3[nH]2)c1	83.7 µM (active)
O=C1C=C(Nc2ccc(O)cc2)CC(c2ccco2)C1 (centres undefined)	9.14 µM (active)
CN(C)c1ccc(NS(=O)(=O)c2cccc(Cl)c2)cc1	28.7 µM (active)

====

Listed next: entries and their corresponding AC50.
Target: Cytochrome P450 2C19 (Homo sapiens, UniProt P33261)
Sequence (P33261 whole entry): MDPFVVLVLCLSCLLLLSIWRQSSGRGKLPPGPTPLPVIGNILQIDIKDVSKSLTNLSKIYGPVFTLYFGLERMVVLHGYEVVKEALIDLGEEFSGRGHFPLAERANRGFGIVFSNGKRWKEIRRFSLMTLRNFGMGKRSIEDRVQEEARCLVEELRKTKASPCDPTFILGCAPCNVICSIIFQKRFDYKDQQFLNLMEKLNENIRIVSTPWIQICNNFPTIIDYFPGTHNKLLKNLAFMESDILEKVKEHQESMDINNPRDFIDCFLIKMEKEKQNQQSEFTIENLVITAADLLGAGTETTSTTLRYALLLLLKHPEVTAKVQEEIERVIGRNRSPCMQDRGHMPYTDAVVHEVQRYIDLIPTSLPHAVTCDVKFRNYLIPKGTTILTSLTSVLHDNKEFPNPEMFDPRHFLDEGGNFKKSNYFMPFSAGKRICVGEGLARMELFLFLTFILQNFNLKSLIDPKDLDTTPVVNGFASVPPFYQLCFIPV
Assay: Cytochrome panel assay with activity outcomes. Panel member name: p450-cyp2c19 Compounds with AC50 equal or less than 10 uM are considered active
Type: functional
Conditions: read-out: AC50

compound	target-or-system	AC50
CSc1ccc2c(c1)N(CC[C@H]1CCCCN1C)c1ccccc1S2	Cytochrome P450 2C19 (Homo sapiens, UniProt P33261)	20 µM (inconclusive)
C/C(CC(=O)NCc1ccco1)=N\NC(=O)Cc1ccc(Cl)cc1	Cytochrome P450 2C19 (Homo sapiens, UniProt P33261)	22.4 µM (inconclusive)
COc1ccc(S(=O)(=O)N(CC(=O)NCC2CCCO2)c2ccc(F)cc2)cc1OC (stereo not given)	Cytochrome P450 2C19 (Homo sapiens, UniProt P33261)	10 µM (inconclusive)
CC(C)(O)c1cn(-c2nonc2N)nn1	Cytochrome P450 2C19 (Homo sapiens, UniProt P33261)	3.16 µM (inconclusive)
COc1ccc(-n2c(=O)cnc3cnc(Oc4cccc(Cl)c4)nc32)cc1	Cytochrome P450 2C19 (Homo sapiens, UniProt P33261)	15.8 µM (inconclusive)

====

Listed next: entries and their corresponding EC50.
Assay: Luminescence Cell-Based Dose Confirmation HTS to Identify Activators of 5'UTR Stem-Loop Driven Alpha-Synuclein mRNA Translation in H4 Neuroglioblastoma Cells. [Related pubchem assays: 1829 (Project Summary), 1814 (Primary HTS)]
Format: functional
Calls of active or inactive are those of the source.
measured-endpoint: EC50

molecule	value-measured
O=C(CNc1ccccc1OC(F)F)N1CCc2ccccc21	0.103 µM (active)
CCOC(=O)c1csc(-c2ccc3c(c2)CCO3)n1	0.127 µM (active)
COc1ccc(C(=O)C(OC(=O)c2ccccc2)c2ccccc2)cc1 (centres undefined)	10.7 µM (active)
N#Cc1nc(-c2cccc3ccccc23)oc1NCCN1CCCCC1	12.4 µM (active)

====

Biological target: Heat shock protein HSP 90-alpha (Homo sapiens)
Type: functional, organism-based
The source made the active and inactive calls.

molecule	target-or-system	AC50
O=S1(=O)C=C(Sc2nnc(-c3ccccc3)o2)c2ccccc21	Heat shock protein HSP 90-alpha (Homo sapiens)	2.9 µM (active)
CCOC(=O)c1ccc(NC(=O)CC2C(=O)OCCN2CC)cc1 (stereo not given)	Heat shock protein HSP 90-alpha (Homo sapiens)	4.65 µM (active)
Cc1cc(/C=C2\SC(=S)NC2=O)c(C)n1-c1ccc(O)cc1	Heat shock protein HSP 90-alpha (Homo sapiens)	15.5 µM (active)
CC[C@H](C)/C=C(C)/C=C/C1=CC2=C(Cl)C(=O)[C@](C)(OC(C)=O)C(=O)C2=CO1 [SCLEROTIORIN]	Heat shock protein HSP 90-alpha (Homo sapiens)	0.8 µM (active)
Cc1ccc(-c2onc3ccc(C(=O)/C=C/N(C)C)cc23)cc1	Heat shock protein HSP 90-alpha (Homo sapiens)	4.11 µM (active)

====

Listed next: entries and their corresponding AC50.
Biological target: Cytochrome P450 2C19 (Homo sapiens, UniProt P33261)
Test: Cytochrome panel assay with activity outcomes. Panel member name: p450-cyp2c19 Compounds with AC50 equal or less than 10 uM are considered active
Format: functional
Settings: read-out: AC50

compound	AC50
CC(=O)/C=C/c1ccc2ccccc2n1	39.8 µM (inconclusive)
O=C(Nc1nnc(C2CC2)s1)c1ccc(S(=O)(=O)c2ccccc2)cc1	7.08 µM (inconclusive)
COCCCn1c(=S)[nH]c2ncccc2c1=O	0.501 µM (inconclusive)
COCCn1c(=O)c(-c2ccc(F)cc2)nc2cnc(OCc3ccccc3)nc21	10 µM (inconclusive)
Cc1ccc(-c2nnc(N(C)C(=O)c3cccnc3)s2)cc1	3.16 µM (inconclusive)
CCCCn1c(SC(C)C(N)=O)nc2cc(C(=O)OC)ccc2c1=O (configuration not stated)	3.55 µM (inconclusive)
O=C(c1cccc(F)c1)N1CCC2(CC1)CCN(c1ncccn1)CC2	39.8 µM (inconclusive)
CS(=O)(=O)N1CCC[C@@]2(CCN(C(c3ccccc3)c3ccccc3)C2)C1	3.16 µM (inconclusive)
CCOc1cccc(C2C(C(=O)c3ccc(C)o3)=C(O)C(=O)N2Cc2ccncc2)c1 (configuration not stated)	39.8 µM (inconclusive)
c1csc(CNc2ccnc(-c3ccoc3)n2)c1	31.6 µM (inconclusive)
CC(C)NC(=Nc1ccc(Cl)cc1)c1cccnc1	6.31 µM (inconclusive)
COCCCNC(=O)/C=C/c1cccc(Cl)c1	15.8 µM (inconclusive)

====

Biological target: Heat shock factor protein 1 (Mus musculus)
Sequence (P38532 whole entry): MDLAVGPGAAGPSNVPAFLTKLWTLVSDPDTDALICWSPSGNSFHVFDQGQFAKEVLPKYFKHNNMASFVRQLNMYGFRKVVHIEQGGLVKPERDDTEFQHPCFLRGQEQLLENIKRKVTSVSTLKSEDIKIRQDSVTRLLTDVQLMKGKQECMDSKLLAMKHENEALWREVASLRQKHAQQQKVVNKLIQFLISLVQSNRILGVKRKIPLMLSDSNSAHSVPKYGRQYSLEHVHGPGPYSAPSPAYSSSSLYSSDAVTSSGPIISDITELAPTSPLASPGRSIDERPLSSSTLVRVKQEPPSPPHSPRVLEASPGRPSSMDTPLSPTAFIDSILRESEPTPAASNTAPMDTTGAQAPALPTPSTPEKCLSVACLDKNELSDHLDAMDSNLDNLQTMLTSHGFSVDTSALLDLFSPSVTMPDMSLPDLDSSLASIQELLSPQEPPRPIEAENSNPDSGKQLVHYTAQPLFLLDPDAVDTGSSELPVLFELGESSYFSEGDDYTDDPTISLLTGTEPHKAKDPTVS
Test: HSF1 potentiators in luciferase reporter cells, confirmation, cell-based, NIH3T3, luminescence, dose retest (AID 435004);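 note: stress induced by proteasome inhibitor MG132 added 30 min after compound; luciferase reporter driven by HSF1 response element in NIH3T3 cells; actives raise luminescence as potentiators of the MG132 stress response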
Type: functional
Activity calls are given as the source filed them.
Outcome codes: YES for active, NO for inactive

molecule	assigned-label
Cc1ccc2c(c1)c(C)c(C)n2CC(O)Cn1nc(C)c(Br)c1C (stereo not given)	NO
CSc1nc(-c2ccccc2)nc(C(Cl)Cl)n1	YES
COc1cc(NC(=O)c2cc([N+](=O)[O-])ccc2Br)ccc1NC(=O)c1ccco1	YES
CCn1c(=O)n(CC)c2cc(S(=O)(=O)Nc3ccccc3C)c(C)cc21	NO
Cc1ccc(S(=O)(=O)NNC(=O)c2sc3nc(C)cc(C)c3c2-n2cccc2)cc1	NO
CCC(=O)Nc1c(S(=O)(=O)c2ccccc2)c2nc3ccccc3nc2n1C(C)c1ccccc1 (stereo not given)	NO
O=C(CC12CCC(CC1)C2)NCc1ccc2c(c1)OCO2	NO
Cc1ccc(NC(=O)c2sc(N)nc2-c2ccc([N+](=O)[O-])cc2)c(C)c1	NO
CCCCn1c(C)c(C(=O)OCC)c2c(CN3CCOCC3)c(O)ccc21	NO
Cc1ccccc1Cn1c(-c2cncs2)nc2ccccc21	NO
